System: UACC-62 melanoma
Experiment: NCI tumour cell line growth inhibition, 48 h

{"COMPOUND": "O=S1OC2(c3ccccc3-c3ccccc32)c2ccccc21 (centres undefined)", "EXPERIMENTAL_TARGET": "UACC-62 melanoma", "INEQUALITY_SIGN": ">", "TGI, µM": 100}
{"COMPOUND": "CC1(CF)SCc2nc3ccccc3n21 (centres undefined)", "EXPERIMENTAL_TARGET": "UACC-62 melanoma", "INEQUALITY_SIGN": ">", "TGI, µM": 100}
{"COMPOUND": "CCOC(=O)/C=C(\\C(=O)OCC)n1cc(C)c(=O)n(Cc2cnnn2CCCCOC(C)=O)c1=O", "EXPERIMENTAL_TARGET": "UACC-62 melanoma", "INEQUALITY_SIGN": "=", "TGI, µM": 31.7}
{"COMPOUND": "COc1cc2c3c(n(CCCN(C)C)c(=O)c2cc1OC)-c1ccccc1C3=O", "EXPERIMENTAL_TARGET": "UACC-62 melanoma", "INEQUALITY_SIGN": "=", "TGI, µM": 19.1}
{"COMPOUND": "NC1=NS(=O)(=O)Nc2nc(-c3ccc([N+](=O)[O-])cc3)[nH]c21", "EXPERIMENTAL_TARGET": "UACC-62 melanoma", "INEQUALITY_SIGN": ">", "TGI, µM": 100}
{"COMPOUND": "CN(CCCNC(=O)Cc1ccc2ccc3cccc4ccc1c2c34)CCCNc1cc(-c2ccc3ccccc3c2)nc2ccccc12", "EXPERIMENTAL_TARGET": "UACC-62 melanoma", "INEQUALITY_SIGN": "=", "TGI, µM": 3.46}
{"COMPOUND": "CC(=O)O[C@H](C[C@H](C(C)C)N(C)C(=O)[C@@H](NC(=O)[C@H]1CCCCN1C)C(C)C)c1nc(C(=O)N[C@@H](Cc2ccccc2)C[C@H](C)C(=O)O)c(CCOCc2ccccc2)s1", "EXPERIMENTAL_TARGET": "UACC-62 melanoma", "INEQUALITY_SIGN": ">", "TGI, µM": 10}
{"COMPOUND": "Cc1ccc(C2(O)CC(c3ccc([N+](=O)[O-])o3)=NN2C(=O)COc2ccc(Cl)cc2)cc1 (centres undefined)", "EXPERIMENTAL_TARGET": "UACC-62 melanoma", "INEQUALITY_SIGN": "=", "TGI, µM": 15.1}
{"COMPOUND": "O=C(CSc1nnc(Cc2ccccc2)o1)Nc1ccc([N+](=O)[O-])cc1", "EXPERIMENTAL_TARGET": "UACC-62 melanoma", "INEQUALITY_SIGN": ">", "TGI, µM": 100}
